# Tested on: Rattus norvegicus
# PROTOCOL: Distribution (percent dose/g of tissue) of radioactivity 24 hr after intravenous administration of [125I]-labeled compound in rat heart
# Assay type: ADME, organism-based
# ASSAY_CONTEXT: in vivo
The following molecules are shown together with reported Activity values.

Worked examples, 5 molecules total:
CC(C)CCCC(C)C1CCC2C3CC=C4CC(OC(=O)Cc5cccc(I)c5)CCC4(C)C3CCC12C (centres undefined)
0.11 % dose (g of tissue)-1
CC(C)CCCC(C)C1CCC2C3CC=C4CC(OC(=O)c5cccc(I)c5)CCC4(C)C3CCC12C (centres undefined)
0.16 % dose (g of tissue)-1
CC(C)CCCC(C)C1CCC2C3CC=C4CC(OC(=O)Cc5ccc(I)cc5)CCC4(C)C3CCC12C (centres undefined)
0.33 % dose (g of tissue)-1
CC(C)CCCC(C)C1CCC2C3CC=C4CC(OC(=O)c5ccccc5I)CCC4(C)C3CCC12C (centres undefined)
0.21 % dose (g of tissue)-1
CC(C)CCCC(C)C1CCC2C3CC=C4CC(OC(=O)c5ccc(I)cc5)CCC4(C)C3CCC12C (centres undefined)
0.11 % dose (g of tissue)-1

### Prompt Given the entry CC(C)CCCC(C)C1CCC2C3CC=C4CC(OC(=O)Cc5ccccc5I)CCC4(C)C3CCC12C (centres undefined) , report its measured Activity.
### Response 0.15 % dose (g of tissue)-1

### Prompt Now try CC(C)CCCC(C)C1CCC2C3CC=C4CC(OC(=O)c5cc(I)c(I)c(I)c5)CCC4(C)C3CCC12C (centres undefined) .
### Response 0.2 % dose (g of tissue)-1

### Prompt How about this molecule: CC(C)CCCC(C)C1CCC2C3CC=C4CC(OC(=O)CCCc5ccc(I)cc5)CCC4(C)C3CCC12C (centres undefined)
### Response 0.25 % dose (g of tissue)-1

### Prompt Repeat for the following molecule: CC(C)CCCC(C)C1CCC2C3CC=C4CC(OC(=O)CCc5ccc(I)cc5)CCC4(C)C3CCC12C (centres undefined)
### Response 0.08 % dose (g of tissue)-1

====

# Tested on: Rattus norvegicus
# PROTOCOL: Distribution (percent dose/g of tissue) of radioactivity 24 hr after intravenous administration of [125I]-labeled compound in rat plasma
# Type: ADME, organism-based
# ASSAY_CONTEXT: in vivo
READOUT: Activity

### Prompt Report Activity for CC(C)CCCC(C)C1CCC2C3CC=C4CC(OC(=O)c5cc(I)cc(I)c5I)CCC4(C)C3CCC12C (stereo not given) please.
### Response 1.02 % dose (g of tissue)-1

### Prompt Also, CC(C)CCCC(C)C1CCC2C3CC=C4CC(OC(=O)Cc5ccccc5I)CCC4(C)C3CCC12C (stereo not given) please.
### Response 0.29 % dose (g of tissue)-1

### Prompt Queued: CC(C)CCCC(C)C1CCC2C3CC=C4CC(OC(=O)c5cc(I)c(I)c(I)c5)CCC4(C)C3CCC12C (stereo not given)
### Response 1.01 % dose (g of tissue)-1

### Prompt // same read-out, input: CC(C)CCCC(C)C1CCC2C3CC=C4CC(OC(=O)c5cccc(I)c5)CCC4(C)C3CCC12C (stereo not given)
### Response 0.55 % dose (g of tissue)-1

### Prompt Next compound up: CC(C)CCCC(C)C1CCC2C3CC=C4CC(OC(=O)c5ccc(I)cc5)CCC4(C)C3CCC12C (stereo not given)
### Response 0.36 % dose (g of tissue)-1

### Prompt What about this compound? CC(C)CCCC(C)C1CCC2C3CC=C4CC(OC(=O)CCCc5ccc(I)cc5)CCC4(C)C3CCC12C (stereo not given)
### Response 1.51 % dose (g of tissue)-1

### Prompt Quick one: CC(C)CCCC(C)C1CCC2C3CC=C4CC(OC(=O)Cc5cccc(I)c5)CCC4(C)C3CCC12C (stereo not given)
### Response 0.24 % dose (g of tissue)-1

### Prompt And then CC(C)CCCC(C)C1CCC2C3CC=C4CC(OC(=O)CCc5ccc(I)cc5)CCC4(C)C3CCC12C (stereo not given) , what is it?
### Response 0.16 % dose (g of tissue)-1

### Prompt Subsequent entry: CC(C)CCCC(C)C1CCC2C3CC=C4CC(OC(=O)c5ccccc5I)CCC4(C)C3CCC12C (stereo not given)
### Response 0.8 % dose (g of tissue)-1

### Prompt // repeat for CC(C)CCCC(C)C1CCC2C3CC=C4CC(OC(=O)Cc5ccc(I)cc5)CCC4(C)C3CCC12C (stereo not given) and report
### Response 1.88 % dose (g of tissue)-1
